experimental.details: Plasma pharmacokinetics after IV bolus in C.B-17 SCID mouse
Format: in vivo
run.conditions: female, C.B-17 SCID, mouse, plasma, intravenous, 5 mg/kg, mouse IV, dosed at 5 mg/kg; 6 hr; read-out: Concentration AZD4320 in Plasma, Dose Adjusted to 10 mg/kg
quantity.measured: concentration at 6 h

q: What value of concentration at 6 h has been recorded for this entry: CN(CCO)CCC(CSc1ccccc1)Nc1ccc(S(=O)(=O)NC(=O)c2ccc(N3CCC(C(O)c4ccccc4-c4ccc(Cl)cc4)CC3)cc2)cc1S(=O)(=O)C(F)(F)F (stereo not shown) [AZD4320]
a: 120 ng/mL

###

experimental.details: Plasma pharmacokinetics after IV bolus in C.B-17 SCID mouse
Assay type: in vivo
run.conditions: female, C.B-17 SCID, mouse, plasma, iv, 5 mg/kg, mouse IV, AZD4320 dosed at 5 mg/kg; 0.05 hr; read-out: Concentration AZD4320 in Plasma, Mean
Description: Pharmacokinetic studies were carried out in the female C.B-17 SCID mouse. […] Blood samples were collected at different time points post dose and analysed as below. […] The concentrations of ‘total’ AZD4320 were determined in plasma by overnight incubation with hydrazine followed by protein precipitation with acetonitrile and subsequent liquid/liquid extraction. […]
quantity.measured: concentration at 0.05 h (ng/mL)
Reply with just the number (in ng/mL).

q: What value of concentration at 0.05 h has been recorded for this entry: CN(CCO)CCC(CSc1ccccc1)Nc1ccc(S(=O)(=O)NC(=O)c2ccc(N3CCC(C(O)c4ccccc4-c4ccc(Cl)cc4)CC3)cc2)cc1S(=O)(=O)C(F)(F)F (stereo not shown)
a: 15300
